observed-property: glass transition temperature (°C)

(Q) Returns the measured glass transition temperature for the input molecule. Input: *CCCCCCCCNC(=O)Cc1ccc(CC(=O)N*)cc1 (repeat unit)
(A) 110.00

(Q) Returns the measured glass transition temperature for the input molecule. Input: *c1cccc(C(=O)c2c(C)cc(C)c(N3C(=O)c4ccc(-c5ccc6c(c5)C(=O)N(*)C6=O)cc4C3=O)c2C)c1 (repeat unit)
(A) 320.00

(Q) Returns the measured glass transition temperature for the input molecule. Input: *CCCCCCOC(=O)Nc1ccc(C)c(NC(=O)OCCCCCCOc2ccc(-c3ccc(O*)cc3)cc2)c1 (repeat unit)
(A) 87.00

(Q) Returns the measured glass transition temperature for the input molecule. Input: *C(=O)c1ccc2c(c1)C(=O)N(c1ccc(Oc3ccc(C(=O)c4cccc(C(=O)c5ccc(Oc6ccc(N7C(=O)c8ccc(*)cc8C7=O)cc6)cc5)c4)cc3)cc1)C2=O (repeat unit)
(A) 222.00

(Q) Returns the measured glass transition temperature for the input molecule. Input: *CCOCCOCCOC(=O)CCSCCC(=O)O* (repeat unit)
(A) -35.00

(Q) Returns the measured glass transition temperature for the input molecule. Input: *CCCCCCCCCCn1c2ccccc2c2cc(/C=C(\C#N)C(=O)OCCCCCCOC(=O)/C(C#N)=C/c3ccc4c(c3)c3ccccc3n4*)ccc21 (repeat unit)
(A) 94.50

(Q) Returns the measured glass transition temperature for the input molecule. Input: *Oc1ccc(OC(=O)c2ccc(-c3ccc(C(*)=O)cc3)cc2-c2ccccc2)cc1C(C)(C)c1ccccc1 (repeat unit)
(A) 146.00

(Q) Returns the measured glass transition temperature for the input molecule. Input: *C(=O)c1ccc2c(c1)/C(=N\c1cccc(Oc3cccc(Oc4cccc(/N=C5/OC(=O)c6ccc(*)cc65)c4)c3)c1)OC2=O (repeat unit)
(A) 190.00

I. *CCCCCCOC(=O)OCCCCCCCCOC(=O)OCCCCCCOc1ccc(Oc2ccc(O*)cc2)cc1 (repeat unit)
II. *CCCCCCOc1ccc(C(=O)OC(=O)c2ccc(O*)cc2)cc1 (repeat unit)
(Q) Pick one: I or II . Which has the bigger glass transition temperature number? Please indicate the selected item by its label.
(A) II
(II: 47.00 °C, I: -17.00 °C)

A. *c1ccc(Oc2ccc(C(=O)c3ccc(Oc4ccc(N5C(=O)c6ccc(-c7ccc8c(c7)C(=O)N(*)C8=O)cc6C5=O)cc4)cc3)cc2)cc1 (repeat unit)
B. *OCCOC(=O)c1cc(/N=N/c2ccc(OCC)cc2)ccc1-c1ccc(/N=N/c2ccc(OCC)cc2)cc1C(=O)OCCOc1nc(-c2ccc(OCCCC)cc2)nc(*)c1-c1ccc(OC)cc1 (repeat unit)
(Q) Which of these two has the smaller recorded glass transition temperature: A or B ? Please indicate the selected item by its label.
(A) B

====

observed-property: glass transition temperature (°C)

# annotated cases, reported glass transition temperature shown
(Q) Returns the measured glass transition temperature for the input compound. Input: *CC(=O)Nc1cccc2c(NC(=O)COc3ccc4ccccc4c3Sc3c(O*)ccc4ccccc34)cccc12 (repeat unit)
(A) 264.00

(Q) Returns the measured glass transition temperature for the input compound. Input: *c1cccc(NC(=O)c2ccc(OCCOc3ccc(C(=O)Nc4ccc5[nH]c(*)nc5c4)cc3)cc2)c1 (repeat unit)
(A) 250.00

(Q) Returns the measured glass transition temperature for the input compound. Input: *c1ccc(Oc2cccc(Oc3ccc(N4C(=O)c5ccc(Oc6cc7ccccc7cc6Oc6ccc7c(c6)C(=O)N(*)C7=O)cc5C4=O)cc3)c2)cc1 (repeat unit)
(A) 208.00

(Q) Returns the measured glass transition temperature for the input compound. Input: *CCCCCOc1cccc(NC(=O)c2cccc(C(=O)Nc3cccc(O*)c3)c2)c1 (repeat unit)
(A) 131.50

(Q) Returns the measured glass transition temperature for the input compound. Input: *Oc1ccc(/N=C(\c2ccccc2)c2ccc(Oc3ccc(C(c4ccccc4)(c4ccccc4)c4ccc(Oc5ccc(/C(=N/c6ccc(*)cc6)c6ccccc6)cc5)cc4)cc3)cc2)cc1 (repeat unit)
(A) 177.00

(Q) Returns the measured glass transition temperature for the input compound. Input: *Oc1ccc2ccc(Oc3ccc(C(=O)Nc4ccc(Oc5ccc(C(C)(C)c6ccc(C(C)(C)c7ccc(Oc8ccc(NC(=O)c9ccc(*)cc9)cc8)cc7)cc6)cc5)cc4)cc3)cc2c1 (repeat unit)
(A) 166.00

A. */C=C/c1ccc2c(c1)C(CCCCCC)(CCCCCC)c1cc(/C=C/c3nc(*)c(C#N)c(/C=C/c4ccc(N(c5ccccc5)c5ccccc5)cc4)c3C#N)ccc1-2 (repeat unit)
B. *CCCCOC(=O)NNC(=O)CCCCCCCCC(=O)NNC(=O)O* (repeat unit)
(Q) Pick one: A or B . Which has the bigger glass transition temperature number? Please indicate the selected item by its label.
(A) A

I. *Oc1ccc(Oc2ccc(C(=O)c3ccc(C(=O)c4ccc(*)cc4)cc3)cc2)cc1-c1ccc(S(=O)(=O)O)c(C)c1 (repeat unit)
II. *Oc1ccc(C(C)(C)c2ccc(OC(=O)CCCCC(*)=O)cc2)cc1 (repeat unit)
(Q) Pick one: I or II . Which has the bigger glass transition temperature number? Please indicate the selected item by its label.
(A) I
(I: 167.00 °C, II: 54.00 °C)

====

observed-property: glass transition temperature (°C)

(Q) Returns the measured glass transition temperature for the input compound. Input: */C=C/c1sc(-c2ccc(-c3ccc(-c4sc(/C=C/C5=CC(=C(C#N)C#N)C=C(*)O5)c(CCCCCC)c4CCCCCC)s3)s2)c(CCCCCC)c1CCCCCC (repeat unit)
(A) 112.00

(Q) Returns the measured glass transition temperature for the input compound. Input: *CC(*)(CC(=O)Oc1ccccc1)C(=O)Oc1ccccc1 (repeat unit)
(A) 132.00

(Q) Returns the measured glass transition temperature for the input compound. Input: *O[Si](*)(C)CCCOCC1COC(=O)O1 (repeat unit)
(A) -25.90

(Q) Returns the measured glass transition temperature for the input compound. Input: *CC(*)(C)C(=O)Oc1ccc(C)cc1C (repeat unit)
(A) 109.00

====

observed-property: glass transition temperature (°C)

(Q) Returns the measured glass transition temperature for the input molecule. Input: *c1ccc(Oc2ccc(-n3c(=O)c4cc5c(=O)n(-c6ccc(Oc7ccc(-c8nc9cc%10sc(*)nc%10cc9s8)cc7)cc6)c(=O)c5cc4c3=O)cc2)cc1 (repeat unit)
(A) 400.00

(Q) Returns the measured glass transition temperature for the input molecule. Input: *CCCCCCNC(=O)c1ccc(C(=O)N*)c(Oc2ccc(Cl)cc2)c1 (repeat unit)
(A) 112.00

(Q) Returns the measured glass transition temperature for the input molecule. Input: *CC(*)c1cccs1 (repeat unit)
(A) 71.00

(Q) Returns the measured glass transition temperature for the input molecule. Input: *CCOC(=O)C1CCC(C(=O)OCCOc2ccc(C(C)(C)c3ccc(O*)cc3)cc2)CC1 (repeat unit)
(A) 57.00

(Q) Returns the measured glass transition temperature for the input molecule. Input: *c1ccc(-c2cc(-c3ccc(-c4ccccc4)cc3)cc(-c3ccc(N4C(=O)c5ccc(NC(=O)Nc6ccc(Oc7ccc(NC(=O)Nc8ccc9c(c8)C(=O)N(*)C9=O)cc7)cc6)cc5C4=O)cc3)n2)cc1 (repeat unit)
(A) 241.00

(Q) Returns the measured glass transition temperature for the input molecule. Input: *c1ccc(OC(=O)Nc2ccc(-c3ccc(NC(=O)Oc4ccc(-c5nc(-c6ccc([N+](=O)[O-])cc6)[nH]c5*)cc4)cc3OC)c(OC)c2)cc1 (repeat unit)
(A) 202.00

(Q) Returns the measured glass transition temperature for the input molecule. Input: *CC(*)c1ccc(C(=O)CCCC)cc1 (repeat unit)
(A) 70.00

(Q) Returns the measured glass transition temperature for the input molecule. Input: *CCCNC(=O)C(OC)C(OC)C(=O)N* (repeat unit)
(A) 123.00

a. *CC(c1ccccc1)C1C(=O)N(CCCOc2ccc(-c3ccc(C#N)cc3)cc2)C(=O)C1* (repeat unit)
b. *Nc1cc(NC(=O)c2ccc(C(*)=O)cc2)cc(C(=O)OC(c2ccccc2)c2ccccc2)c1 (repeat unit)
c. *c1cc(CCCCCCCCCC)c(*)s1 (repeat unit)
d. *CCCCCCOc1ccc(/C=C/c2ccc(O*)cc2)cc1 (repeat unit)
(Q) Ascending sort, glass transition temperature. Give the labels in the order requested.
(A) c, d, a, b

A. *Oc1ccc(OC(=O)c2ccc(C(*)=O)cc2Sc2ccccc2)cc1 (repeat unit)
B. *Oc1c(OC)cc(-c2cc(OC)c(OC(=O)CCCCCCCCC(*)=O)c(OC)c2)cc1OC (repeat unit)
C. *CCCCCOC(=O)NNC(=O)CCCCCCCCC(=O)NNC(=O)O* (repeat unit)
D. *CC(*)CCCCCCCCCCCCCCCCCC (repeat unit)
(Q) Ascending sort, glass transition temperature. Give the labels in the order requested.
(A) D, C, B, A

a. *Oc1ccc(OC(=O)c2ccc(-c3ccc(C(*)=O)cc3)cc2-c2ccccc2)cc1 (repeat unit)
b. *c1ccc(NC(=O)Nc2ccc(NC(=O)Nc3ccc(-c4nc(C#N)c(C#N)nc4*)cc3)cc2)cc1 (repeat unit)
(Q) Which of these two has the smaller recorded glass transition temperature: a or b ? Please indicate the selected item by its label.
(A) a
(a: 140.00 °C, b: 248.70 °C)
